test system: LOX IMVI; experiment: NCI tumour cell line growth inhibition, 48 h
Calls of active or inactive are those of the source. No stated cut-off is given here; in the data, active = GI50 up to about 1.1 µM and inactive = higher.
QUANTITY KIND: GI50

Guide cases for GI50, answers given:
>  <COMPOUND>
CC(C)OC(=O)C1=C(O)c2ccccc2S(=O)(=O)N1

>  <GI50>
> 100 µM (inactive)

$$$$
>  <COMPOUND>
N#Cc1c(C(N)=O)ncn1Cc1ccccc1

>  <GI50>
> 100 µM (inactive)

$$$$
>  <COMPOUND>
O=C(O)c1cccc(CN2CCCCC2)c1

>  <GI50>
> 100 µM (inactive)

$$$$
>  <COMPOUND>
CN(CCN(C)CCN(C)C(=O)Cc1ccc(Cl)c(Cl)c1)CCN1CCCC1

>  <GI50>
16.6 µM (inactive)

$$$$
>  <COMPOUND>
CC(Br)C(=O)NC(CO)C(=O)O (stereo unspecified)

>  <GI50>
> 100 µM (inactive)

$$$$

Lab note: each compound below needs its GI50 filled in.
1. CN(C(=O)C1=CCCCCC1)c1ccccc1I
2. Clc1ccc(C2=C(c3ccccc3)C(c3ccc(Cl)cc3)N3C(=N[C@H]4CCCC[C@@H]43)N2)cc1 (stereo partly specified)
3. CC1=C2C3OC(=O)C(C)C3C(O)C[C@@]2(C)C(=O)CC1 (stereo partly specified)

Ans.
1. 28.9 µM (inactive)
2. 11.8 µM (inactive)
3. > 100 µM (inactive)

Lab note: each compound below needs its GI50 filled in.
1. O=C(O)C(Br)C(Br)C(=O)O (stereo unspecified)
2. CN(CCCNC(=O)c1n[nH]c2c1ccc1ccccc12)CCCNC(=O)c1n[nH]c2c1ccc1ccccc12
3. CC1/C(=N/O)CC(c2ccccc2)N(N=O)C1c1ccccc1 (stereo unspecified)

Ans.
["> 100 µM (inactive)", "12.5 µM (inactive)", "> 100 µM (inactive)"]

###

system: OVCAR-4; test: NCI tumour cell line growth inhibition, 48 h
Active and inactive are the calls of the source. Cut-off read from the data, not from the text of the source: active = GI50 up to about 1.1 µM and inactive = higher.
The categories you may choose from are YES = active, NO = inactive

// known answers, use as guide
>  <COMPOUND>
CCOP(=O)(OCC)/C(C#N)=C/c1cc(O)ccc1O

>  <LABEL CLASS>
NO

$$$$
>  <COMPOUND>
CCOC(=O)c1ccc(C(=O)C(C(C)=O)C(=O)OC(C)(C)C)[nH]1 (configuration not stated)

>  <LABEL CLASS>
NO

$$$$
>  <COMPOUND>
CC1=C2C(=C[C@@](C)(CO)[C@@H]2O)C(=O)[C@](C)(O)C12CC2

>  <LABEL CLASS>
YES

$$$$
>  <COMPOUND>
CC(=O)N1C/C(=C\c2ccccc2)C(=O)/C(=C/c2ccccc2)C1

>  <LABEL CLASS>
NO

$$$$
>  <COMPOUND>
CNn1c(C)n[nH]c1=O

>  <LABEL CLASS>
NO

$$$$
>  <COMPOUND>
CCOC(=O)C1=C(c2ccccc2)N(C)c2ccccc2S1

>  <LABEL CLASS>
NO

$$$$

API: the following record is the query input.
Qu. What classification did CCOC(=O)CCC(NC(=O)c1ccc(/N=C/c2nc3ccccc3nc2-c2ccccc2)cc1)C(=O)OCC (configuration not stated) end up with in this test?
Ans. NO

###

tested on: MCF7; assay: NCI tumour cell line growth inhibition, 48 h
The source made the active and inactive calls. No stated cut-off is given here; in the data, active = GI50 up to about 1.1 µM and inactive = higher.
The categories you may choose from are label 1 = active, label 0 = inactive

// known answers, use as guide
>  <MOLECULE>
O=C1OC[C@@H]2Cc3c([nH]c4ccccc34)[C@@H](c3ccc(O)cc3)N12

>  <LABEL CLASS>
label 0

$$$$
>  <MOLECULE>
Cc1ccc2c(=O)c(C(=O)Nn3c(C)csc3=S)c[nH]c2n1

>  <LABEL CLASS>
label 0

$$$$
>  <MOLECULE>
CCOC(=O)C1=C(c2ccccc2)N(C)c2ccccc2S1

>  <LABEL CLASS>
label 0

$$$$
>  <MOLECULE>
CCC(=O)C1(N2CCOCC2)CCN(CCCC(=O)c2ccc(F)cc2)CC1

>  <LABEL CLASS>
label 0

$$$$
>  <MOLECULE>
CC1=C2c3c(C)ccc4ccc(C)c(c34)C2(O)C(C)C1=O (stereo unspecified)

>  <LABEL CLASS>
label 0

$$$$

API: the following record is the query input.
Qu. What classification did "CC(=O)c1nccc2c1c(C)nc1ccccc12" end up with in this test?
Ans. label 0

###

Assignment: determine reported GI50 for the given molecules.
system: UACC-62; assay: NCI tumour cell line growth inhibition, 48 h
Active and inactive are the calls of the source. No stated cut-off is given here; in the data, active = GI50 up to about 1.1 µM and inactive = higher.

Guide cases for GI50, answers given:
>  <CHEM SMILES>
O=c1[nH]c2cc(C(F)(F)F)ccc2nc1C(F)(F)F

>  <GI50>
43.2 µM (inactive)

$$$$
>  <CHEM SMILES>
O=C1CCCc2ccc3c(c21)CC1(Cc2ccccc2C1)C3

>  <GI50>
26.1 µM (inactive)

$$$$

Please find the next molecule below.
Qu. Query the reported GI50 for UACC-62; item: "C#CCOC(=O)C(=[N+]=[N-])C(=O)CC(C)C"
Ans. > 10 µM (inactive)

###

system: K562; test: NCI tumour cell line growth inhibition, 48 h
Active and inactive are the calls of the source. No stated cut-off is given here; in the data, active = GI50 up to about 1.1 µM and inactive = higher.
The categories you may choose from are active, inactive

>  <COMPOUND>
CCCC(=O)O[C@H]1C=C2C[C@@]34SS[C@]5(CC6=C[C@H](OC(C)=O)[C@@H]7O[C@@H]7[C@H]6N5C3=O)C(=O)N4[C@@H]2[C@H]2O[C@H]21

>  <TESTED ON>
K562

>  <LABEL CLASS>
active

$$$$
>  <COMPOUND>
COc1cc([C@@H]2c3cc4c(cc3[C@@H](NCc3ccccc3)C3COC(=O)[C@@H]32)OCO4)cc(OC)c1O (stereo not given in full)

>  <TESTED ON>
K562

>  <LABEL CLASS>
inactive

$$$$
>  <COMPOUND>
O=C1C(=O)N(c2ccc(Cl)cc2Cl)C(=O)C(=O)C1c1nc2ccccc2s1

>  <TESTED ON>
K562

>  <LABEL CLASS>
inactive

$$$$
>  <COMPOUND>
Clc1ccc(C2=C(c3ccccc3)C(c3ccc(Cl)cc3)N3C(=N[C@H]4CCCC[C@@H]43)N2)cc1 (stereo not given in full)

>  <TESTED ON>
K562

>  <LABEL CLASS>
inactive

$$$$
>  <COMPOUND>
O=C(CSCC(=O)N/N=C/c1ccccc1)N/N=C\c1ccccc1

>  <TESTED ON>
K562

>  <LABEL CLASS>
inactive

$$$$
>  <COMPOUND>
CCOP1(=O)C=C(C)C(=C(Cl)Cl)C(C)=C1 (stereo not given)

>  <TESTED ON>
K562

>  <LABEL CLASS>
inactive

$$$$
>  <COMPOUND>
CCOCN1COCN/C1=N/C#N

>  <TESTED ON>
K562

>  <LABEL CLASS>
inactive

$$$$
>  <COMPOUND>
CC(=O)Oc1ccc2c(c1)CC[C@@H]1C2[C@@H](O[N+](=O)[O-])C[C@@]2(C)C1CC[C@@H]2O (stereo not given in full)

>  <TESTED ON>
K562

>  <LABEL CLASS>
inactive

$$$$
>  <COMPOUND>
COc1ccc(-c2c3c([nH]c(=S)c2C#N)CC(C)(C)CC3=O)cc1

>  <TESTED ON>
K562

>  <LABEL CLASS>
inactive

$$$$

API: the following record is the query input.
Qu. What classification did "CN(C(=O)C1=CCCCCC1)c1ccccc1I" end up with in this test?
Ans. inactive

###

system: M14; assay: NCI tumour cell line growth inhibition, 48 h
Calls of active or inactive are those of the source. Rule as the data show it: active = GI50 up to about 1.1 µM and inactive = higher.
The categories you may choose from are TRUE = active, FALSE = inactive

// known answers, use as guide
>  <MOLECULE>
O=C(O)CCCc1ccc2ccc3ccccc3c2c1

>  <TESTED ON>
M14

>  <LABEL CLASS>
FALSE

$$$$
>  <MOLECULE>
CC1/C(=N/O)CC(c2ccccc2)N(N=O)C1c1ccccc1 (configuration not stated)

>  <TESTED ON>
M14

>  <LABEL CLASS>
FALSE

$$$$
>  <MOLECULE>
CCOP(=O)(OCC)C(Cc1c[nH]c2ccccc12)C(=O)O (configuration not stated)

>  <TESTED ON>
M14

>  <LABEL CLASS>
FALSE

$$$$
>  <MOLECULE>
COc1ccc2nc(-c3ccc(O)cc3)cn2c1

>  <TESTED ON>
M14

>  <LABEL CLASS>
FALSE

$$$$
>  <MOLECULE>
CO/C=C(/C(=O)OC)c1ccccc1[C@@H]1CC1c1cccc(F)c1 (some centres not stated)

>  <TESTED ON>
M14

>  <LABEL CLASS>
FALSE

$$$$

Qu. What classification did "O=C(CC(=O)Nc1ccc(C(=O)O)cc1)Nc1ccc(C(=O)O)cc1" end up with in this test?
Ans. FALSE

Qu. What classification did "CCCCCCNC(=O)C1=C(C)NC(C)=C(C(=O)NCCCCCC)C1" end up with in this test?
Ans. FALSE

Qu. What classification did O=C(O)C1CC2C3CCC2C1C3=O (configuration not stated) end up with in this test?
Ans. FALSE

Qu. What classification did "Cc1cccc(/C=N/NC(=S)N(C)CCc2ccccn2)n1" end up with in this test?
Ans. TRUE

Qu. What classification did CCC(=O)OC1CCn2c1nc1c2C(=O)C(C)=C(NC(C)=O)C1=O (configuration not stated) end up with in this test?
Ans. FALSE

Qu. What classification did "Cc1ccc2c(O)cc(-c3ccccc3)nc2n1" end up with in this test?
Ans. TRUE
